target-under-test: CCR2 (Homo sapiens)
Sequence (P41597 whole entry, species assumed): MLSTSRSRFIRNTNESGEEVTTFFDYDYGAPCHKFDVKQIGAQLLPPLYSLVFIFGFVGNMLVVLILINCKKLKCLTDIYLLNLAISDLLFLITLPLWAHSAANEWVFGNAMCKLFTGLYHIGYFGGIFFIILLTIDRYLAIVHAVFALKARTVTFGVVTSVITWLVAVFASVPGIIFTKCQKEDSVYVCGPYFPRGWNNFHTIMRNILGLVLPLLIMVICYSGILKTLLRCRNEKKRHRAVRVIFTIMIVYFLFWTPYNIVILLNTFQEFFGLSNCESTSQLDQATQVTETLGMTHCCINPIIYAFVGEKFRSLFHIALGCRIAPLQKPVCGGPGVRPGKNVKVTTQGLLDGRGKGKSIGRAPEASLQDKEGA
experimental-protocol: CCR2 in vitro test: intracellular calcium signal detected by FLIPR
stated-conditions: HEK293 cells expressing CCR2, agonist MCP-1 at EC80, calcium signal
pIC50: −log10 of the molar value.
measured-quantity: pIC50

INSERT INTO assay_data (molecule, test_result) VALUES
  ('CCCCOc1ccc(-c2ccc(Cl)c(/C=C/C(=O)Nc3ccc([S+]([O-])Cc4cncn4CCCC)cc3)c2)cc1 (centres unmarked)', 6.68),
  ('CCCCOc1ccc(-c2ccc(Cl)c(/C=C/C(=O)Nc3ccc([S@@+]([O-])Cc4cncn4CCC)cc3)c2)cc1', 6.90),
  ('CCCCOCCOc1ccc(-c2ccc(OC)c(/C=C/C(=O)Nc3ccc([S+]([O-])Cc4c(C)ncn4CCC)cc3)c2)cc1 (centres unmarked)', 7.37),
  ('CCCCOCCOc1ccc(-c2cc(/C=C/C(=O)Nc3ccc([S@@+]([O-])Cc4cncn4CCC)cc3)c(OC)cc2Cl)cc1', 6.60),
  ('CCCCOCCOc1ccc(-c2ccc(C)c(/C=C/C(=O)Nc3ccc([S+]([O-])Cc4cncn4CC)cc3)c2)cc1 (centres unmarked)', 7.65),
  ('CCCCOCCOc1ccc(-c2ccc(C(F)(F)F)c(/C=C/C(=O)Nc3ccc([S@@+]([O-])Cc4c(C)ncn4CC)cc3)c2)cc1', 7.41),
  ('CCCCOCCOc1ccc(-c2ccc(OC)c(/C=C/C(=O)Nc3ccc([S@@+]([O-])Cc4cncn4CC)cc3)c2)cc1', 7.95),
  ('CCCCOCCOc1ccc(-c2ccc(F)c(/C=C/C(=O)Nc3ccc([S@+]([O-])Cc4c(C)ncn4CC)cc3)c2)cc1', 8.33),
  ('CCCOCCOc1ccc(-c2ccc(OC)c(/C=C/C(=O)Nc3ccc([S@@+]([O-])Cc4c(C)ncn4CC)cc3)c2)cc1', 7.30),
  ('CCCOCCOc1ccc(-c2ccc(OCC)c(/C=C/C(=O)Nc3ccc([S@@+]([O-])Cc4cncn4CCC)cc3)c2)cc1', 7.77),
  ('CCCCOCCOc1ccc(-c2ccc(OC(C)C)c(/C=C/C(=O)Nc3ccc([S@@+]([O-])Cc4cncn4CCC)cc3)c2)cc1', 7.25),
  ('CCCn1cncc1C[S@+]([O-])c1ccc(NC(=O)/C=C/c2cccc(-c3ccc(OC(C)C)cc3)c2)cc1', 7.19),
  ('CCCCOCCOc1ccc(-c2ccc(C#N)c(/C=C/C(=O)Nc3ccc([S@@+]([O-])Cc4cncn4CCC)cc3)c2)cc1', 6.53),
  ('CCCCOCCOc1ccc(-c2ccc(C(F)(F)F)c(/C=C/C(=O)Nc3ccc([S@@+]([O-])Cc4cncn4CCC)cc3)c2)cc1', 7.73);
